melting point reference

Query smiles: O=c1nc(N2CCN(c3ccc(Cl)cc3)CC2)sc2c([N+](=O)[O-])cc([N+](=O)[O-])cc12
melting point: 279 to 281 °C
//
Query smiles: O=c1nc(N2CCN(c3cccc(C(F)(F)F)c3)CC2)sc2c([N+](=O)[O-])cc(C(F)(F)F)cc12
melting point: 201 to 203 °C
//
Query smiles: CCN(Cc1ccccc1)c1nc(=O)c2cc(C(F)(F)F)cc([N+](=O)[O-])c2s1
melting point: 94 to 97 °C
//
Query smiles: CN(Cc1ccccc1)c1nc(=O)c2cc(C(F)(F)F)cc([N+](=O)[O-])c2s1
melting point: 120 to 124 °C
//
Query smiles: O=c1nc(N2CCN(Cc3ccccc3)CC2)sc2c([N+](=O)[O-])cc(C(F)(F)F)cc12
melting point: 161 to 163 °C
//
Query smiles: O=c1nc(NCc2ccccc2)sc2c([N+](=O)[O-])cc(C(F)(F)F)cc12
melting point: 192 to 194 °C

---

- Tested on: M. fortuitum B
- Assay text: MIC by broth micro dilution method in Mueller-Hinton broth (NCCLS)
- Type: cell-based
- Stated conditions: Mycolicibacterium fortuitum; broth micro dilution, Mueller-Hinton broth; read-out: M. fortuitum MIC

Molecule: O=c1nc(N2CCN(Cc3ccccc3)CC2)sc2c([N+](=O)[O-])cc(C(F)(F)F)cc12 [Compound 7]
Unit string: ng/mL
Readout qualifier: =
MIC: 50
//
Molecule: CCN(Cc1ccccc1)c1nc(=O)c2cc(C(F)(F)F)cc([N+](=O)[O-])c2s1 [Compound 4]
Unit string: ng/mL
Readout qualifier: =
MIC: 6.2
//
Molecule: O=c1nc(NCc2ccccc2)sc2c([N+](=O)[O-])cc(C(F)(F)F)cc12 [Compound 8]
Unit string: ng/mL
Readout qualifier: =
MIC: 0.78
//
Molecule: C[C@H](c1ccccc1)N(C)c1nc(=O)c2cc(C(F)(F)F)cc([N+](=O)[O-])c2s1 [Compound 9]
Unit string: ng/mL
Readout qualifier: <
MIC: 0.0121
//
Molecule: O=c1nc(N2CCN(c3ccccc3F)CC2)sc2c([N+](=O)[O-])cc(C(F)(F)F)cc12 [Compound 6]
Unit string: ng/mL
Readout qualifier: =
MIC: 5
//
Molecule: O=c1nc(N2CCN(c3cccc(C(F)(F)F)c3)CC2)sc2c([N+](=O)[O-])cc(C(F)(F)F)cc12 [Compound 3]
Unit string: ng/mL
Readout qualifier: =
MIC: 3.1
//
Molecule: CN(Cc1ccccc1)c1nc(=O)c2cc(Cl)cc([N+](=O)[O-])c2s1 [Compound 10]
Unit string: ng/mL
Readout qualifier: =
MIC: 1.56
//
Molecule: Cc1ccc(Cl)cc1N1CCN(c2nc(=O)c3cc(C(F)(F)F)cc([N+](=O)[O-])c3s2)CC1 [Compound 2]
Unit string: ng/mL
Readout qualifier: =
MIC: 31
//
Molecule: CN(Cc1ccccc1)c1nc(=O)c2cc(C(F)(F)F)cc([N+](=O)[O-])c2s1 [Compound 5]
Unit string: ng/mL
Readout qualifier: =
MIC: 15.6

---

- Test system: Mycobacterium smegmatis SG 987
- Assay text: MIC by broth micro dilution method in Mueller-Hinton broth (NCCLS)
- Type: cell-based
- Stated conditions: Mycolicibacterium smegmatis, SG987; broth micro dilution, Mueller-Hinton broth; read-out: M. smegmatis MIC
log10 of MIC reference
Property: log10 of MIC (log10 of the value in ng/mL)

Compound: CN(Cc1ccccc1)c1nc(=O)c2cc(C(F)(F)F)cc([N+](=O)[O-])c2s1 [Compound 5]
log10 of MIC: 1.19

Compound: O=c1nc(N2CCN(c3cccc(C(F)(F)F)c3)CC2)sc2c([N+](=O)[O-])cc(C(F)(F)F)cc12 [Compound 3]
log10 of MIC: 1.60

Compound: Cc1ccc(Cl)cc1N1CCN(c2nc(=O)c3cc(C(F)(F)F)cc([N+](=O)[O-])c3s2)CC1 [Compound 2]
log10 of MIC: 1.70

Compound: CN(Cc1ccccc1)c1nc(=O)c2cc(Cl)cc([N+](=O)[O-])c2s1 [Compound 10]
log10 of MIC: 0.79

Compound: CCN(Cc1ccccc1)c1nc(=O)c2cc(C(F)(F)F)cc([N+](=O)[O-])c2s1 [Compound 4]
log10 of MIC: 0.79

Compound: O=c1nc(N2CCN(Cc3ccccc3)CC2)sc2c([N+](=O)[O-])cc(C(F)(F)F)cc12 [Compound 7]
log10 of MIC: 1.70

Compound: O=c1nc(N2CCN(c3ccccc3F)CC2)sc2c([N+](=O)[O-])cc(C(F)(F)F)cc12 [Compound 6]
log10 of MIC: 0.70

Compound: O=c1nc(NCc2ccccc2)sc2c([N+](=O)[O-])cc(C(F)(F)F)cc12 [Compound 8]
log10 of MIC: -0.11

---

melting point reference
Property: melting point

Query smiles: C[C@H](c1ccccc1)N(C)c1nc(=O)c2cc(C(F)(F)F)cc([N+](=O)[O-])c2s1
Result: 110 to 113 °C
//
Query smiles: CN(Cc1ccccc1)c1nc(=O)c2cc(Cl)cc([N+](=O)[O-])c2s1
Result: 138 to 141 °C
//
Query smiles: Cc1ccc(Cl)cc1N1CCN(c2nc(=O)c3cc(C(F)(F)F)cc([N+](=O)[O-])c3s2)CC1
Result: 158 to 161 °C
//
Query smiles: O=c1nc(N2CCN(c3ccccc3F)CC2)sc2c([N+](=O)[O-])cc(C(F)(F)F)cc12
Result: 164 to 168 °C
